Target under test: T1, human claudin 6 (CLDN6) (human, UniProt P56747 1-220)
T1 construct: also called human CLDN6; hCLDN6
T1 sequence: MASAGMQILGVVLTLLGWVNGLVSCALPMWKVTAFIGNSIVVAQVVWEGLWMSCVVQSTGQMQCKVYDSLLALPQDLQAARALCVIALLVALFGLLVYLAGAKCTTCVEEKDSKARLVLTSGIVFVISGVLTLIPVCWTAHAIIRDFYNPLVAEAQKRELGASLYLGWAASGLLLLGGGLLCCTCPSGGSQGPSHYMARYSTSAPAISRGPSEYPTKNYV
Protocol notes: FACS, HEK293T/human CLDN6 cells
Assignment: determine reported Top MFI Mean for the given binders.
Numbers only, in MFI.

These solved cases illustrate the format of a correct answer.
{"columns": ["Binder", "Quantity unit", "Top MFI Mean"],
 "data": [
  ["BG87P-Bz1 (antibody, V domains shown) VH: QVQLVQSGAEVKKPGASVKVSCKASGYSFTDYHINWVRQAPGQRLEWMGWIYPGSGYTKYNEKFKVRVTLTVDTSASTAYMELSSLRSEDTAVYFCARSGIYHYVSSYYFDHWGKGTTVTVSS VL: DIQMTQSPSTLSASVGDRVTITCKASQDVGTAVAWYQQKPGKSPKLLIYWASTRHTGVPSRFSGSGSGTEFTLTISSVQPDDFATYFCQQYSSYTFGGGTKVEIK", "MFI", 99700],
  ["BG87P-Bz2 (antibody, V domains shown) VH: QIQLVQSGAEVKKPGASVKVSCKASGYTFTDYHINWVRQAPGQRLEWMGWIYPGSGYTKYNEKFKVRVTLTVDTSASTAYMELSSLRSEDTAVYFCARSGIYHYVSSYYFDHWGKGTTVTVSS VL: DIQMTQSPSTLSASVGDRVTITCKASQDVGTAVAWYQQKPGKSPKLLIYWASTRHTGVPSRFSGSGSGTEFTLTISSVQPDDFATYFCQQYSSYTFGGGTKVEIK", "MFI", 84300]
]}

Problem: Using the record for BG87P-z0 (antibody, V domains shown) VH: QVQLVQSGAEVKKPGASVKVSCKASGYTFTDYHINWVRQAPGQRLEWMGWIYPGSGYTKYNEKFKVRVTITRDTSASTAYMELSSLRSEDTAVYYCARSGIYHYVSSYYFDHWGKGTTVTVSS VL: DIQMTQSPSTLSASVGDRVTITCKASQDVGTAVAWYQQKPGKAPKLLIYWASTRHTGVPSRFSGSGSGTEFTLTISSLQPDDFATYYCQQYSSYTFGGGTKVEIK , report its Top MFI Mean.
Result: 95600

The measured values listed here are drawn from patent US20240301062A1.
